# assayed.system: human GLP1R (Homo sapiens, UniProt P43220)
# Construct: expressed in transfected cells; host or cells: CHO cells (ATCC), transient transfection with pCMV-human GLP1R
# Sequence (P43220 24-463): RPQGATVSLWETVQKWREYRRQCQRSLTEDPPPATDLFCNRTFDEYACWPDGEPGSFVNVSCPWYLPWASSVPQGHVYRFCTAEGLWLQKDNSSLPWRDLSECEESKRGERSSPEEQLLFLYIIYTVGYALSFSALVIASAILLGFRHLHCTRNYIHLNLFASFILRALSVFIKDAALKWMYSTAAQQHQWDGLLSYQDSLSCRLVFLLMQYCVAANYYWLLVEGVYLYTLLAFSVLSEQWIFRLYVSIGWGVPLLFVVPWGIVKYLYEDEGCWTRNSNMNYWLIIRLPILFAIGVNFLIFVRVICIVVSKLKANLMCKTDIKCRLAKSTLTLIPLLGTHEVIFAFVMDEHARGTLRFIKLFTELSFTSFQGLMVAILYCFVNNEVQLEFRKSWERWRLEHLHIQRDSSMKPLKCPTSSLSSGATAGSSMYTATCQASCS
# run.description: Human GLP-1 receptor transfected cell assay (MRE/CRE-luciferase reporter gene, agonist activity)
# Type: cell-based
# condition.info: 6 h; conc. 10 μM; percentage of the activity of the control; read-out: Agonist Activity
endpoint: activation at 10 µM

For this molecule ( CC(C)(C)OC(=O)Nc1ccc(-c2nc(-c3ccc(CC(NC(=O)N4CCN(c5ccc(Cl)cc5)CC4)C(=O)O)cc3F)no2)cc1 (stereo not drawn) [Compound 13A] ), measured activation at 10 µM is > 60%

For this molecule ( Cc1ccc(-c2cc(NC(=O)NC(Cc3ccc(-c4noc(-c5ccc(NC(=O)OC(C)(C)C)cc5)n4)c(F)c3)C(=O)O)[nH]n2)cc1 (stereo not drawn) [Compound 12G] ), measured activation at 10 µM is > 60%

For this molecule ( Cc1ccc(-c2ccc(C(=O)NC(Cc3ccc(-c4noc(-c5ccc(NC(=O)OC(C)(C)C)cc5)n4)c(F)c3F)C(=O)O)o2)cc1 (stereo not drawn) [Compound 13F] ), measured activation at 10 µM is > 60%

For this molecule ( CC(C)(C)OC(=O)Nc1ccc(-c2nc(-c3ccc(CC(NC(=O)Nc4ccc(-c5cccs5)cn4)C(=O)O)cc3F)no2)cc1 (stereo not drawn) [Compound 13Z] ), measured activation at 10 µM is > 60%

For this molecule ( Cc1cc(C)c(S(=O)(=O)NC(Cc2ccc(-c3noc(-c4ccc(NC(=O)OC(C)(C)C)cc4)n3)c(F)c2)C(=O)O)c(C)c1 (stereo not drawn) [Compound 11I] ), measured activation at 10 µM is 40 to 60%

For this molecule ( Cc1ccc(N2CCC(NC(=O)NC(Cc3ccc(-c4noc(-c5ccc(NC(=O)OC(C)(C)C)cc5)n4)c(F)c3)C(=O)O)C2)cc1 (stereo not drawn) [Compound 13P] ), measured activation at 10 µM is > 60%
